Provide the recorded self-cleavage for the entries that follow.
B1: Hairpin Ribozyme (parent)
chain: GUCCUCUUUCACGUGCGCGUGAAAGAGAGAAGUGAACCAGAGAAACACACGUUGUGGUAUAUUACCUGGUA

Variants of: B1
test.summary: self-cleavage, relative activity (ratio to wild type); higher = more cleavage; co-transcriptional

Query string: Fill blank: measured self-cleavage of the variant U58C U60A is ____.
Result string: 0.845

Query string: Fill blank: measured self-cleavage of the variant G40U A71C is ____.
Result string: 0.319

Query string: Fill blank: measured self-cleavage of the variant G21C A24C is ____.
Result string: 0.556

Query string: Fill blank: measured self-cleavage of the variant C3U G21U is ____.
Result string: 0.472

Query string: Fill blank: measured self-cleavage of the variant G32U U53C is ____.
Result string: 0.253

Query string: Fill blank: measured self-cleavage of the variant A43G A45G is ____.
Result string: 0.104

Query string: Fill blank: measured self-cleavage of the variant G25U U63G is ____.
Result string: 0.174

Query string: Fill blank: measured self-cleavage of the variant A28G C65U is ____.
Result string: 0.498

Query string: Fill blank: measured self-cleavage of the variant G51U U53C is ____.
Result string: 0.777

Query string: Fill blank: measured self-cleavage of the variant U7C G34A is ____.
Result string: 1.17

Query string: Fill blank: measured self-cleavage of the variant G21C A44C is ____.
Result string: 0.0985

Query string: Fill blank: measured self-cleavage of the variant C3G U63C is ____.
Result string: 0.164

Query string: Fill blank: measured self-cleavage of the variant U5G C10A is ____.
Result string: 0.235

Query string: Fill blank: measured self-cleavage of the variant A45C U63A is ____.
Result string: 0.0272

Query string: Fill blank: measured self-cleavage of the variant C10G A36C is ____.
Result string: 0.498

Query string: Fill blank: measured self-cleavage of the variant C50G U63G is ____.
Result string: 0.0983

Query string: Fill blank: measured self-cleavage of the variant U8G A45G is ____.
Result string: 0.125

Query string: Fill blank: measured self-cleavage of the variant U33C G34U is ____.
Result string: 0.348
